Kindly state efficacy for each of the entries shown.
test system: HCT116; test: efficacy (fitted maximal change in viability relative to DMSO control); higher = less cytotoxic (negative = loss of viability); conditions: 48 h
Counter-ions that a name gives are not always drawn.
Please don't drop the unit; write it after the number.

Recorded result, "COc1cccc2c(NCc3ccccc3)nc(-n3c(N)nc4ccccc43)nc12" , efficacy: -93.4%

Recorded result, C=C1C(=O)O[C@@H]2[C@H]3O[C@]3(C)CC/C=C(\C)CC[C@@H]12 [Parthenolide] , efficacy: -97.4%

Recorded result, "COc1c(C)cnc(Cn2cnc3c(Cl)nc(N)nc32)c1C" , efficacy: -57%

Recorded result, "Cc1ccc([S+](=O)([O-])OCC(=O)Nc2ccc(C(=O)O)c(O)c2)cc1" , efficacy: -5.21%

Recorded result, CC(=O)NC(C)c1ccc(Oc2ccc(OC(C)C)cc2)cc1 (stereo not drawn) , efficacy: -47.8%

Recorded result, "COc1cc(OC2CCN(C)CC2)ccc1Nc1ncc2c(n1)n(C1CCCC1)c(=O)n2C" , efficacy: -102%

Recorded result, CCCC(CCC)C(=O)[O-] [Valproic acid sodium salt] , efficacy: 14%

Recorded result, "Cc1cnc(Nc2ccc(N3CCN(C)CC3)cc2)nc1Nc1cccc([S+](=O)([O-])NC(C)(C)C)c1" , efficacy: -89.5%

* * *

system: HCT116; assay: AC50 cell viability (CellTiter-Glo); higher = less potent; conditions: 48 h
Structures can show the parent of a compound that is named as a salt.
Measured parameter: log10(AC50 cell viability) (log10 of the value in µM)
On a log10 scale: recorded AC50 cell viability, unit µM.

Here "CNC(=O)[C@@H](NC(=O)[C@H](CC(C)C)[C@H](O)C(=O)NO)C(C)(C)C" was tested on HCT116, and its log10(AC50 cell viability) came to 1.32

Here "Cn1cc(CNCC2CCN(c3ncc(C(=O)NO)cn3)CC2)c2ccccc21" was tested on HCT116, and its log10(AC50 cell viability) came to -1.13

Here "N#Cc1ccc2c(c1)CN([S+](=O)([O-])c1cccs1)[C@H](Cc1ccccc1)CN2Cc1cnc[nH]1" was tested on HCT116, and its log10(AC50 cell viability) came to -0.38

Here "COc1cc(N2CCC(N3CCN(C)CC3)CC2)ccc1Nc1ncc(Cl)c(Nc2ccccc2[S+](=O)([O-])C(C)C)n1" was tested on HCT116, and its log10(AC50 cell viability) came to 0.07

Here "CC(C)N(CCCNC(=O)Nc1ccc(C(C)(C)C)cc1)C[C@H]1O[C@@H](n2cc(Br)c3c(N)ncnc32)[C@H](O)[C@@H]1O" was tested on HCT116, and its log10(AC50 cell viability) came to 1.32

Here CN(C)CCN1C(=O)c2cccc3cc(N)cc(c23)C1=O [Amonafide] was tested on HCT116, and its log10(AC50 cell viability) came to 0.62

Here "CN1CCN(c2cc(C(=O)Nc3ccc4c(c3)-c3c(c(C(N)=O)nn3-c3ccc(F)cc3)CC4)c(Cl)cn2)CC1" was tested on HCT116, and its log10(AC50 cell viability) came to 1.32

Here "CCN(CC)CCCCNc1ncc2cc(-c3cc(OC)cc(OC)c3)c(NC(=O)NC(C)(C)C)nc2n1" was tested on HCT116, and its log10(AC50 cell viability) came to 1.27

Here "Fc1ccc2[nH]ccc2c1-c1nc(N2CCOCC2)c2sc(CN3CCN(CC4CC4)CC3)cc2n1" was tested on HCT116, and its log10(AC50 cell viability) came to 1.27

Here "Cc1cc(Nc2cc(NC(=O)c3c(Cl)cccc3Cl)ccn2)nc(N)n1" was tested on HCT116, and its log10(AC50 cell viability) came to 0.07

Here "Nc1ccc(C(=O)c2cc3c(ccc4ccccc43)[nH]2)cc1" was tested on HCT116, and its log10(AC50 cell viability) came to 0.68

Here CN(C)CCC=C1C2=C(C=CC=C2)\C=C/C3=C1C=CC=C3 [Cyclobenzaprine hydrochloride] was tested on HCT116, and its log10(AC50 cell viability) came to 1.27

Here "Nc1n[nH]c2nnc(-c3c(-c4ccccc4)nn4ccccc34)cc12" was tested on HCT116, and its log10(AC50 cell viability) came to 1.27

Here "CS[C@H]1SC[C@@H]2C(=O)N(C)[C@H](C(C)C)C(=O)OC[C@H](NC(=O)c3cnc4ccccc4n3)C(=O)N[C@H](C)C(=O)N(C)[C@H]1C(=O)N(C)[C@H](C(C)C)C(=O)OC[C@H](NC(=O)c1cnc3ccccc3n1)C(=O)N[C@H](C)C(=O)N2C" was tested on HCT116, and its log10(AC50 cell viability) came to -2.43

Here "Cn1c(CCCCCCC(=O)NO)nc2cc(N(CCCl)CCCl)ccc21" was tested on HCT116, and its log10(AC50 cell viability) came to 0.47

Here "C/C=C/C/C=C/CCC(=O)[C@H]1O[C@H]1C(N)=O" was tested on HCT116, and its log10(AC50 cell viability) came to 1.22

Here "CC[C@H](C)C(=O)O[C@H]1CC\C=C2\C=C/[C@H](C)[C@H](CC[C@@H]3C[C@@H](O)CC(=O)O3)[C@@H]12" was tested on HCT116, and its log10(AC50 cell viability) came to 1.17

Here "N#CC[C@H](C1CCCC1)n1cc(-c2ncnc3[nH]ccc23)cn1" was tested on HCT116, and its log10(AC50 cell viability) came to 1.07

Here "C[N]1C=C(C=N1)C2=CC=C3N=CC\4=C(N(C(=O)\C=C4)C5=CC6=C(CCN6C(=O)C=C)C=C5)C3=C2" was tested on HCT116, and its log10(AC50 cell viability) came to -0.29

Here "CNC(=O)c1cc(COc2nnc(Nc3ccc(Cl)cc3)c3ccoc23)ccn1" was tested on HCT116, and its log10(AC50 cell viability) came to 1.32

Here "Oc1c(Cl)cc(Cl)c2cccnc12" was tested on HCT116, and its log10(AC50 cell viability) came to 1.12

Here CCCCCCCCc1ccc(CCC(N)(CO)CO)cc1 [Fingolimod hydrochloride] was tested on HCT116, and its log10(AC50 cell viability) came to 1.32

Here O=C1[O][Pt]2([NH]C3CCCCC3[NH]2)[O]C1=O (stereo not given) was tested on HCT116, and its log10(AC50 cell viability) came to 0.96

Here "C=CC(=O)N1CCC[C@@H](n2nc(-c3ccc(Oc4ccccc4)cc3)c3c(N)ncnc32)C1" was tested on HCT116, and its log10(AC50 cell viability) came to 1.22

Here "OC[C@H]1O[C@H](C[C@@H]1O)N2\C=C(F)/C(=O)NC2=O" was tested on HCT116, and its log10(AC50 cell viability) came to -0.63

Here "NC/1=N/C(=O)C2=C([NH]C=C2CCC3=CC=C(C=C3)C(=O)N[C@@H](CCC(O)=O)C(O)=O)N1" was tested on HCT116, and its log10(AC50 cell viability) came to -0.13

Here "Cc1cc(C(=O)Nc2cc(Oc3ccc4nc(NC(=O)C5CC5)cn4n3)ccc2C)n(C)n1" was tested on HCT116, and its log10(AC50 cell viability) came to 1.17

Here "c1ccc(CNc2nc(N3CCOc4ccccc43)nc3c2CCCC3)cc1" was tested on HCT116, and its log10(AC50 cell viability) came to 1.32

Here C[C@@H]1C[C@H]2[C@@H]3CC\C4=C\C(=O)\C=C/[C@]4(C)[C@@]3(Cl)[C@@H](O)C[C@]2(C)[C@@]1(OC(=O)C5=CC=CO5)C(=O)CCl [Mometasone furoate] was tested on HCT116, and its log10(AC50 cell viability) came to 1.32

Here "COc1ccc(N(C)c2nc(C)nc3ccccc23)cc1" was tested on HCT116, and its log10(AC50 cell viability) came to -2.43
